Tested on: CHO
assay_overview: % viability of CHO cells (MTT); higher = less toxic
study_conditions: 20 µM; 48 h
parameter_measured: % viability of CHO cells (%)
Answer in %, number only, no unit symbol.

Example compounds with recorded % viability of CHO cells:
CN(Cc1ccc(C(C)(C)C)cc1)Cc1cccc2ccccc12 = 110
CC[C@@]1(O)C(=O)OCc2c1cc1n(c2=O)Cc2cc3c(CN(C)C)c(O)ccc3nc2-1 = 67.7
O=c1[nH]c(=O)n(Cc2cccc(Oc3ccccc3)c2)cc1Nc1ccccc1 = 65.4
Fc1ccc(-n2cc(Cn3c(-c4cccc(F)c4)nc4ccccc43)nn2)cc1 = 78.7
O=C(NC1CCCc2c1[nH]c1ccc(Cl)cc21)c1ccccn1 (stereo not given) = 102

Challenge: Given O=C(O)COc1cccc2c1CC[C@](O)(COC(=O)N(c1ccccc1)c1ccccc1)C2 , state its recorded % viability of CHO cells.
Response given: 105

Challenge: What do you have for O=C(Cn1cnc2ccccc2c1=O)Nc1ccccc1 ?
Response given: 84.1

Challenge: What do you have for N[C@H]1CCC[C@H]1C(=O)O ?
Response given: 145

Challenge: What do you have for CN(O)C(=O)c1cc2c(CN3CCC[C@H]3C(N)=O)cn(Cc3ccc(F)cc3)c2cn1 ?
Response given: 119

###

Catalogue of % inhibition of HepG2 viability values
System: HepG2-A16-CD81
assay_overview: % inhibition of HepG2 viability (CellTiter-Glo); higher = more toxic
study_conditions: 5 µM
Answer in %, number only, no unit symbol.

COc1ccc2c(c1OC)C(=O)OC2C1c2c(cc3c(c2OC)OCO3)CCN1C (stereo unspecified) = 3.76

Challenge: For the record O=S(=O)(NCB(O)O)c1cc2c(Cl)ccc(Cl)c2s1 , what value of % inhibition of HepG2 viability is listed for HepG2-A16-CD81?
Response given: 30.9

Challenge: What do you have for CCc1cc(CCCOc2c(C)cc(-c3noc(C(F)(F)F)n3)cc2C)on1 ?
Response given: -0.702

Challenge: What do you have for Nc1nc(O)c(Br)c(-c2ccccc2)n1 ?
Response given: 7.28

Challenge: What do you have for Oc1ccc2[nH]c(-c3ccccc3)nc2c1 ?
Response given: 12.1

Challenge: What do you have for OC[C@@H]1CC[C@H](n2cnc3c(O)ncnc32)O1 ?
Response given: -1.26

###

System: Plasmodium falciparum NF54 asexual blood stage
assay_overview: % inhibition of asexual blood stage proliferation (pLDH); higher = more inhibition
study_conditions: 20 µM; 72 h
parameter_measured: % inhibition of asexual blood stage proliferation (%)
Answer in %, number only, no unit symbol.

COc1ccc2nc(-c3ccccc3)cc(O)c2c1 = 94.3
O=C(O)c1cc(-c2ccccc2)nc2ccccc12 = 90.2
COc1ccc(C[C@@H](C)[C@@H](C)Cc2ccc(OC)c(OC)c2)cc1OC = 63
CN1c2ccc(Cl)cc2N(c2ccccc2)C(=O)c2cn(Cc3ccc(CN4CCOCC4)cc3)nc21 = 23.7
CCCC(=O)OCCc1ccccc1 = 16.5
Cc1cc(C)n(O)c(=O)c1 = 4.56

Challenge: Given NC[C@H]1O[C@H](O[C@H]2[C@H](O)[C@@H](O[C@H]3O[C@H](CO)[C@@H](O)[C@H](N)[C@H]3O)[C@H](N)C[C@@H]2N)[C@H](N)C[C@@H]1O , state its recorded % inhibition of asexual blood stage proliferation.
Response given: 18.7

Challenge: What do you have for CC(C)(C)OC(=O)NCc1ccc(C(=O)N[C@H]2CCOC2=O)cc1 ?
Response given: 17.2

Challenge: What do you have for c1ccc(-c2nnc3c4ccccc4c(N4CCNCC4)nn23)cc1 ?
Response given: 69.2

Challenge: What do you have for COc1cccc(N2CCN(C3=Nc4c(F)cccc4[C@H](CC(=O)O)N3c3cc(C(F)(F)F)ccc3OC)CC2)c1 ?
Response given: 84.4

Challenge: What do you have for Fc1ccc(-n2cc(Cn3c(-c4cccc(F)c4)nc4ccccc43)nn2)cc1 ?
Response given: 83.1

###

Tested on: Plasmodium falciparum NF54 asexual blood stage
assay_overview: % inhibition of asexual blood stage proliferation (pLDH); higher = more inhibition
study_conditions: 20 µM; 72 h
parameter_measured: % inhibition of asexual blood stage proliferation
Write the numeric value and follow it with the unit.

Example compounds with recorded % inhibition of asexual blood stage proliferation:
COc1ccc2sc3c(c2c1)NC(C)CNC3=O (stereo unspecified) = 40.7%
CC(=O)Nc1cc(NS(=O)(=O)c2ccc(Cl)cc2)cc2c(Cl)n[nH]c12 = 75%
N#CCN1C(=O)COc2cc(F)c(N3C(=O)c4ccccc4C3=O)cc21 = 14.8%
OB1OCc2c1ccc(Cl)c2F = 36.7%
CC(C)Cn1c(=O)n(C)c(=O)c2c(-c3cncn3C)n(Cc3cccc4ccccc34)nc21 = 118%

Challenge: Given CC(C)N(c1cc(-c2ccccc2)sc1C(=O)O)C(=O)[C@H]1CC[C@H](C)CC1 , state its recorded % inhibition of asexual blood stage proliferation.
Response given: 44.9%

Challenge: What do you have for CC1(C)C[C@H]1C(=O)N/C(=C\CCCCSC[C@@H](N)C(=O)O)C(=O)O ?
Response given: 20.1%

Challenge: What do you have for CCCCCCC1c2ccc(O)cc2Oc2cc(O)ccc21 ?
Response given: 12.9%

Challenge: What do you have for CC1CN(c2ncnc3c2c(-c2ccccc2)cn3-c2ccc(F)cc2)CC(C)O1 (stereo unspecified) ?
Response given: 95.5%

Challenge: What do you have for O=C(/C(=C/c1ccc(Cl)cc1Cl)n1ccnc1)c1ccc(Cl)cc1 ?
Response given: 75.6%

Challenge: What do you have for Cc1cc(CCCOc2c(C)cc(-c3noc(C(F)(F)F)n3)cc2C)on1 ?
Response given: 65.2%

Challenge: What do you have for CC(=N)N1CC[C@H](SC2=C(C(=O)O)N3C(=O)[C@@H]([C@@H](C)O)[C@H]3C2)C1 ?
Response given: 14.6%

Challenge: What do you have for CCc1c(OCC2CCC2)c2cc(F)ccc2[nH]c1=O ?
Response given: 36%

###

Test system: Plasmodium berghei ANKA liver stage in HepG2-A16-CD81
assay_overview: % inhibition of liver stage parasite viability (luciferase); higher = more inhibition
study_conditions: 5 µM; 48 h
parameter_measured: % inhibition of liver stage parasite viability (%)
Answer in %, number only, no unit symbol.

Challenge: Given O=C(O)C(Cc1c[nH]c2ccccc12)N1C(=O)c2ccccc2C1=O (stereo unspecified) , state its recorded % inhibition of liver stage parasite viability.
Response given: 21.1

###

Test system: Plasmodium falciparum NF54 stage IV/V gametocytes
assay_overview: % inhibition of gametocyte viability (PrestoBlue); higher = more inhibition
study_conditions: 1 µM; 48 h
parameter_measured: % inhibition of gametocyte viability (%)
Answer in %, number only, no unit symbol.

CCNC(=O)Nc1cc(-c2ccccc2)c(-c2cncc(C(=O)O)c2)cn1 = 19.7
O=[N+]([O-])c1cn(Cc2nc(O)nc(O)c2Br)cn1 = 9.08
O=C(Nc1ccccc1)N(Cc1cc(Br)ccc1O)c1ccc(F)cc1 = 27.2
O=C(NCc1cccc2ccccc12)c1cccs1 = 13.5

Challenge: Given Nc1ccc(-c2nc3cc(C(F)(F)F)ccc3n2C23CC4CC(CC(C4)C2)C3)cc1 , state its recorded % inhibition of gametocyte viability.
Response given: 22.2

Challenge: What do you have for CCc1cc(O)c(Oc2ccc(C(N)=O)cc2F)cc1F ?
Response given: 18.7

###

Tested on: Plasmodium falciparum NF54 stage IV/V gametocytes
assay_overview: % inhibition of gametocyte viability (ATP bioluminescence); higher = more inhibition
study_conditions: 5 µM; 24 h
Catalogue of % inhibition of gametocyte viability values

Example molecules with recorded % inhibition of gametocyte viability:
CCN(CC)S(=O)(=O)c1ccc(Cl)c(C(=O)Nc2sc3c(c2C#N)CCCC3)c1 = < 0%
Cc1[nH]c2ccccc2c1CCNCc1ccc(/C=C/C(=O)NO)cc1 = < 0%
O=C(Nc1ccc(N2CCN(C(=O)c3ccccc3)CC2)cc1)c1ccc2c(c1)OCO2 = < 0%
Nc1nc(O)c2ncn(COC(CO)CO)c2n1 = 0.568%

Challenge: Given CC(C)(C)c1ccc(C(=O)NC(=O)N2CCCc3ccccc32)cc1 , state its recorded % inhibition of gametocyte viability.
Response given: < 0%

###

Tested on: Plasmodium berghei ANKA liver stage in HepG2-A16-CD81
assay_overview: % inhibition of liver stage parasite viability (luciferase); higher = more inhibition
study_conditions: 5 µM; 48 h
parameter_measured: % inhibition of liver stage parasite viability (%)
Answer in %, number only, no unit symbol.

Challenge: Given Clc1cccc(-c2nnc(-c3ccccc3)o2)c1 , state its recorded % inhibition of liver stage parasite viability.
Response given: -89.2

Challenge: What do you have for NCc1ccc(S(N)(=O)=O)cc1 ?
Response given: 19.8

Challenge: What do you have for Oc1ccc2[nH]c(-c3ccccc3)nc2c1 ?
Response given: -35.4
